assay: AUClast in C57BL/6 mouse at 5.1 mg/kg, po measured upto 7 hrs by LC-MS/MS analysis; conditions: in vivo
PROPERTY NAME: AUC(0-t) at 7 h (ng·h/mL)
Please state the figure in ng·h/mL; there is no need to write the unit.

Retrieve AUC(0-t) at 7 h measured for O=C1CO[C@H]2CCN(C(=O)N3CCC(Cc4ccc(C(F)(F)F)cc4)CC3)C[C@H]2N1 (racemic) and print it.
4560

---

assay: Plasma protein binding in rat assessed as fraction unbound by equilibrium dialysis based LC-MS/MS method; assay type: ADME, cell-free
PROPERTY NAME: fraction unbound

Retrieve fraction unbound measured for O=C1CO[C@H]2CCN(C(=O)N3CCC(Cc4ccc(C(F)(F)F)cc4)CC3)C[C@H]2N1 and print it.
0.032
